Listing of entries alongside the reported GI50.
- target_system: BAF3 FL KIT EX11DEL/T6701 (Homo sapiens, UniProt P10721, T670I, cells depend on it, form not given)
- Construct: "BAF3 FL KIT EX11DEL/ T6701"
- Sequence (P10721 with tags, fused parts or gaps DEL557-558/T670I, form open): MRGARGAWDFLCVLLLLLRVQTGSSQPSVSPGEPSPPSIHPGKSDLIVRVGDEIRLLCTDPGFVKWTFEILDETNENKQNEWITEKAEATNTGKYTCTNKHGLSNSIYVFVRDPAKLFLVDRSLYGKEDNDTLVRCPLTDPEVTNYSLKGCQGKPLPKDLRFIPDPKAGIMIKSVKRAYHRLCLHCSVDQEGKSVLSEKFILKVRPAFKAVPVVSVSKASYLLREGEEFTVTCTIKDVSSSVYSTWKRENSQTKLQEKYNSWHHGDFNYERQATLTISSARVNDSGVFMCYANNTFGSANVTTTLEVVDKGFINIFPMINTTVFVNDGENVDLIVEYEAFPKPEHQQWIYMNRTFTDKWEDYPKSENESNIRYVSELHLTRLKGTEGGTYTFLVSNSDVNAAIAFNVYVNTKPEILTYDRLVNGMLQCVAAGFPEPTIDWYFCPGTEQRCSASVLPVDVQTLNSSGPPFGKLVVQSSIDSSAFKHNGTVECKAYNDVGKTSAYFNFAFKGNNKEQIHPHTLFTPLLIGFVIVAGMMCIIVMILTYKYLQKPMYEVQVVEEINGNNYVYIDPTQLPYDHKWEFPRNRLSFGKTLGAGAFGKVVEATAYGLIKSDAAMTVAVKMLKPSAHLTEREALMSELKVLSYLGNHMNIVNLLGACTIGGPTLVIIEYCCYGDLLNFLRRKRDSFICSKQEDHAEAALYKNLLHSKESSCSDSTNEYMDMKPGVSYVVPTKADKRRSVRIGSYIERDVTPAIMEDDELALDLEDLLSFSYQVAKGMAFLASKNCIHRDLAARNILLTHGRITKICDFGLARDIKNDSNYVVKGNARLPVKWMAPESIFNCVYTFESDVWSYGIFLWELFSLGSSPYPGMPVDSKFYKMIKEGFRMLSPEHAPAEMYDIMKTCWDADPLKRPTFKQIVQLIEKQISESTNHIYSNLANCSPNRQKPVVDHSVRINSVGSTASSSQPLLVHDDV
- experimental_protocol: c-Kit assay: Ba/F3 KIT mutant viability (Cell Titer-Glo, 72 hours)
- Assay type: cell-based
- stated_conditions: EX11DEL/T6701, viability after 72 hours
reported_property: GI50

- Cc1ccc(C(=O)Nc2cc(C(F)(F)F)ccn2)cc1C#Cc1ccc2c(c1)ncn2CCCN(C)C: 50 to 100 nM
- Cn1cc(-n2cnc3cc(C#Cc4cc(NC(=O)c5cc(C(F)(F)F)ccn5)ccc4F)ccc32)cn1: < 10 nM
- Cc1ccc(C(=O)Nc2cc(C(F)(F)F)ccn2)cc1C#Cc1ccc2c(c1)ncn2-c1ccccc1: 100 to 10000 nM
- Cc1ccc(C(=O)Nc2cc(C(F)(F)F)ccn2)cc1C#Cc1ccc2c(c1)ncn2-c1cn[nH]c1: 10 to 50 nM
